- Method Summary: Thermodynamic solubility in water after 72 hrs
- Assay type: physicochemical
- Test Context: read-out: Therm_solubility

Input Smiles: Cc1cc(=O)n2nc(CC(=O)c3ccccc3)[nH]c2n1
solubility thermodynamic at 72 h: 175 µg/mL

###

- Method Summary: Kinetic solubility in phosphate buffer at pH 7.4
- Assay type: physicochemical

Input Smiles: Cc1cc(=O)n2nc(CC(=O)c3ccccc3)[nH]c2n1
solubility kinetic: 150 µg/mL

###

- System: HEK293
- Method Summary: Cytotoxicity against HEK293 cells after 24 hrs by MTT assay
- Assay type: cell-based
- Test Context: Homo sapiens, HEK293, 24 h

Compound: Cc1cc(=O)n2nc(CC(=O)c3ccccc3)nc2[nH]1 [ESSRAMYCIN]
Study System: HEK293
IC50: > 200 µM
